ASSAY READOUT: pKi
pKi is defined as minus the log10 of a concentration measured in mol/L.

Let me check: O=c1cc(-c2ccccc2)oc2cc(O)c(O)c(O)c12 [baicalein, 5,6,7-trihydroxyflavone] , system AChE (Electrophorus electricus), measured pKi is 5.36

====

Target or system AChE (Electrophorus electricus, UniProt O42275): recorded pIC50 listed per item.
pIC50 is defined as minus the log10 of a concentration measured in mol/L.

Documented pIC50 of O=c1cc(-c2ccccc2)oc2cc(O)c(O)c(O)c12 [baicalein, 5,6,7-trihydroxyflavone] : 5.19

Documented pIC50 of O=C(O)[C@H]1O[C@@H](Oc2cc3oc(-c4ccccc4)cc(=O)c3c(O)c2O)[C@H](O)[C@@H](O)[C@@H]1O [baicalin, reference compound] : 3.69
